Tested on: human TYK2 kinase domain (JH1) (Homo sapiens, UniProt P29597)
Construct: recombinantly generated catalytic kinase (also known as JH1) domain of human JAK1, JAK2, JAK3 and TYK2
Sequence (P29597 897-1176 limits assumed): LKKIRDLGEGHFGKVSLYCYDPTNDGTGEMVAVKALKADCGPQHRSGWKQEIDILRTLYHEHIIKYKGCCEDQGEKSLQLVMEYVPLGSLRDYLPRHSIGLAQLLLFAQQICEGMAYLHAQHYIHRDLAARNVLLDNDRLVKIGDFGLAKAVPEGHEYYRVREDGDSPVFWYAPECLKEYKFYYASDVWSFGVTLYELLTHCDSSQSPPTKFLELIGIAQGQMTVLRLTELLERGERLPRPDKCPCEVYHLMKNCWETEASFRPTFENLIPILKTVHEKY
Assay: JH1 biochemical assay for TYK2 (ADP-Glo kinase assay, recombinant JH1 catalytic domain, JAK3-974 peptide, 10 μM ATP)
Settings: TYK2 JH1, ADP-Glo
pIC50: −log10 of the molar value. Counter-ions that a name gives are not always drawn.
Please provide measured pIC50 for the entries that follow.

Task: Please state recorded pIC50 (tested on human TYK2 kinase domain (JH1) (Homo sapiens, UniProt P29597)) of C[C@@H]1CN(c2cccn3nc(-c4cnn(C)c4)cc23)C(=O)[C@]1(C#N)C1CC1
Output: < 7.00

Task: Identify the measured pIC50 of COc1cncc(-c2cn3nccc3c(N3C[C@@H](C)[C@@](C#N)(C4CC4)C3=O)n2)c1 [Example 244, trifluoroacetate] for human TYK2 kinase domain (JH1) (Homo sapiens, UniProt P29597).
Output: 7.70 to 8.30

Task: // lookup pIC50 | system=human TYK2 kinase domain (JH1) (Homo sapiens, UniProt P29597) | key= C[C@@H]1CN(c2nc(-c3cccnc3F)cn3nccc23)C(=O)[C@]1(C#N)C1CC1 [Example 226, trifluoroacetate]
Output: < 7.00

Task: // fetch human TYK2 kinase domain (JH1) (Homo sapiens, UniProt P29597) pIC50 for C[C@@H]1CN(c2ccnn3cc(-c4cnn([C@H]5C[C@@](F)(C#N)C5)c4)cc23)C(=O)[C@]1(C#N)C1CC1
Output: > 8.30
